// IC50 lookup, one value per entry
# TESTED SYSTEM: BACE1 (Homo sapiens, UniProt P56817)
# Sequence (P56817 46-501, species assumed): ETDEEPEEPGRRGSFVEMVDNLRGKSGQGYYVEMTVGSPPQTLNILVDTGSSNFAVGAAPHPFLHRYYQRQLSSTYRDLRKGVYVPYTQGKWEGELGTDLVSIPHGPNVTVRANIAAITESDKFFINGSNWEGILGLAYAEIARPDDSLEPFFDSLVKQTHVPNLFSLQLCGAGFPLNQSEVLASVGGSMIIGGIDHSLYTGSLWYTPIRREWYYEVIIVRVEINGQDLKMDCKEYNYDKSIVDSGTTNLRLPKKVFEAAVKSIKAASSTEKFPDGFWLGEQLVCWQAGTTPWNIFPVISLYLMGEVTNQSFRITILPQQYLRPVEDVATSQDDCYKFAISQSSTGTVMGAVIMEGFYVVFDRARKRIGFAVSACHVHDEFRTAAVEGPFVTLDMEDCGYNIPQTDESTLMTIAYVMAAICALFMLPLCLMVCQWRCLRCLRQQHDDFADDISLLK
# ASSAY METHOD TEXT: In Vitro Enzymatic BACE FRET (Fluorescence Resonance Energy Transfer) Assay
# Type: biochemical
# PARTICULARS: read-out: BACE1 FRET assay

// query IC50 value for entry COc1ccncc1-c1ccc2c(c1)[C@]1(COC(N)=N1)c1cc(OCC(C)(C)C)ccc1O2 1000 to 5000 nM

Same question for CC(C)(F)COc1cnc2c(c1)[C@]1(COC(N)=N1)c1cc(-c3cccnc3)ccc1O2 please. < 100 nM

Another compound to look at: C[C@](O)(C#Cc1ccc2c(c1)[C@]1(COC(N)=N1)c1cc(-c3cccnc3)ccc1O2)C(F)(F)F < 100 nM

Lookup NC1=N[C@]2(CO1)c1cc(C3=CCOCC3)ccc1Oc1cnc(Cl)cc12 1000 to 5000 nM

Next entry: NC1=N[C@]2(CO1)c1cc(C(=O)N3CCCC3)ccc1Oc1ccc(-c3cccnc3)cc12 100 to 1000 nM

Cool, now CC(C)(C)CC(=O)c1ccc2c(c1)[C@]1(CSC(N)=N1)c1cc(-c3cncnc3)ccc1O2 < 100 nM

Also CC1(C)C[C@H](c2cc3c(cn2)Oc2ccc(-c4cccnc4F)cc2[C@@]32COC(N)=N2)CCO1 ? < 100 nM

Cool, now N#Cc1cccc(-c2ccc3c(c2)[C@]2(COC(N)=N2)c2cc(-c4cccnc4)ccc2O3)c1 < 100 nM

And what about the compound Cc1cscc1-c1ccc2c(c1)[C@@]1(COC(N)=N1)c1cc(OCC(C)(C)C)ccc1O2 ? 100 to 1000 nM

Next compound up: CC(C)(O)C#Cc1ccc2c(c1)[C@@]1(COC(N)=N1)c1cc(C#CC(C)(C)O)cnc1O2 100 to 1000 nM
